Test system: L1210 leukemia ip in BDF1 mice, survival T/C
assay.notes: NCI In Vivo Anticancer Drug Screen. Data for tumor model L1210 Leukemia (intraperitoneal) in B6D2F1 (BDF1) mice
assay.setup: endpoint: mean survival time; dose: 50.0 mg/kg/injection; schedule: Q01DX001 (ip); vehicle: carboxymethylcellulose (CMC); higher = longer survival
Inconclusive results and toxic doses are left out.
attribute.measured: T/C

Some solved cases for reference:
Query string: Suppose we examine the molecule "Cc1cc([N+](=O)[O-])cc(C)c1N" ; what T/C value has been reported?
Result string: 100 % of control

Query string: Same read-out for "Cc1cccc(C(=O)O)[n+]1[O-]" ?
Result string: 100 % of control

Query string: Same read-out for "CCCCCCCCP(=O)(CCCCCCCC)CCCCCCCC" ?
Result string: 95 % of control

Next:
Query string: Suppose we examine the molecule "O=C(O)c1ccc(/C=N/Nc2nnc(N/N=C/c3ccc(C(=O)O)cc3)c3ccccc23)cc1" ; what T/C value has been reported?
Result string: 113 % of control

Query string: Same read-out for "O=c1[nH]c(-c2ccccc2)nc(CN2CCCCC2)c1O" ?
Result string: 101 % of control

Query string: Same read-out for "O=C1C(=O)N2CCCCc3cccc1c32" ?
Result string: 96 % of control

Query string: Same read-out for "CCN(CC)CCCCCCNc1ccnc2cc(Cl)ccc12" ?
Result string: 95 % of control

Query string: Same read-out for "CC(/C=N/NC(N)=S)=N\NC(N)=S" ?
Result string: 97 % of control

Query string: Same read-out for "COc1cccc(/C=N/Nc2nnc(N/N=C/c3cccc(OC)c3)c3ccccc23)c1" ?
Result string: 101 % of control

Query string: Same read-out for "CCOc1ccc(/C=N/Nc2nnc(N/N=C/c3ccc(OCC)c(OCC)c3)c3ccccc23)cc1OCC" ?
Result string: 95 % of control

Query string: Same read-out for "C/C=C(C)/C=N/Nc1nnc(N/N=C/C(C)=C/C)c2ccccc12" ?
Result string: 95 % of control

====

# key: entry, value: T/C
System: L1210 leukemia ip in BDF1 mice, survival T/C
assay.notes: NCI In Vivo Anticancer Drug Screen. Data for tumor model L1210 Leukemia (intraperitoneal) in B6D2F1 (BDF1) mice
assay.setup: endpoint: mean survival time; dose: 200.0 mg/kg/injection; schedule: Q01DX001 (ip); vehicle: other; higher = longer survival
Inconclusive results and toxic doses are left out.

Query string: Suppose we examine the compound "CCCCCCCCC(=O)Nc1nc2nc[nH]c2c(=O)[nH]1" ; what T/C value has been reported?
Result string: 86 % of control

Query string: Same read-out for "Nc1cncc2ncc(-c3ccc(Cl)c(Cl)c3)nc12" ?
Result string: 98 % of control

Query string: Same read-out for "CCCCCCCCCCCCCCCCC/C=N\NC(=O)CCCC(=O)N/N=C/CCCCCCCCCCCCCCCCC" ?
Result string: 88 % of control

Query string: Same read-out for "O=C(Nc1ccc(C(=O)c2ccccc2)cc1)c1ccc(C(=O)Nc2ccc(C(=O)c3ccccc3)cc2)cc1" ?
Result string: 86 % of control

Would you kindly look at the next entry?
Query string: Suppose we examine the compound "O=C(O)c1ccc(N=Cc2ccccc2O)cc1.[Co]" ; what T/C value has been reported?
Result string: 112 % of control

====

System: L1210 leukemia ip in BDF1 mice, survival T/C
assay.notes: NCI In Vivo Anticancer Drug Screen. Data for tumor model L1210 Leukemia (intraperitoneal) in B6D2F1 (BDF1) mice
assay.setup: endpoint: mean survival time; dose: 400.0 mg/kg/injection; schedule: Q04DX003 (ip); vehicle: saline; higher = longer survival
Toxic doses and inconclusive results are not listed.
# key: entry, value: T/C

Query string: Suppose we examine the compound "O=C(CBr)OCCCS(=O)(=O)O" ; what T/C value has been reported?
Result string: 93 % of control

Query string: Same read-out for "C1CCC(C2OCCO2)CC1" ?
Result string: 92 % of control

Next:
Query string: Suppose we examine the compound "CS(=O)(=O)O" ; what T/C value has been reported?
Result string: 109 % of control

Query string: Same read-out for "CN1CCC=C(C(C)(C)O)C1" ?
Result string: 106 % of control

Query string: Same read-out for "C=CCSCCC" ?
Result string: 91 % of control

Query string: Same read-out for "Nc1cc(=O)[nH][nH]1" ?
Result string: 105 % of control

Query string: Same read-out for N#C/C(=C\c1cc(Cl)cc(Cl)c1O)C(/C(C#N)=C/c1cc(Cl)cc(Cl)c1O)c1ccc2c(c1)OCO2 (centres undefined) ?
Result string: 98 % of control

Query string: Same read-out for "Cc1ccc[n+](CCC(N)=O)c1" ?
Result string: 94 % of control

Query string: Same read-out for CC(CN(CCNc1ccccc1)c1ccccc1)c1ccccc1 (centres undefined) ?
Result string: 86 % of control

Query string: Same read-out for CC(=O)NC1CC2c3ccccc3C1([N+](=O)[O-])c1ccccc12 (centres undefined) ?
Result string: 97 % of control

Query string: Same read-out for O=C(NNc1c(Cl)cc(Cl)cc1Cl)C(O)C(O)C(O)C(O)CO (centres undefined) ?
Result string: 87 % of control

Query string: Same read-out for "CN(C)CCNS(C)(=O)=O" ?
Result string: 100 % of control

Query string: Same read-out for CCCCCCCCC(CO)CCCCCC (centres undefined) ?
Result string: 92 % of control

Query string: Same read-out for CNCC(NC)c1cc(OC)c(OC)c(OC)c1 (centres undefined) ?
Result string: 94 % of control
